From: PubChem BioAssay (NCI)

- Test system: UACC-62 melanoma
- testDetails: NCI-60 one-dose screen, 48 h (100 = growth as untreated, 0 = no growth, -100 = all killed)
- particulars: 10 µM unless noted
Compounds without any hit were thinned out: in the full panel of roughly 83,000, 20% have a hit.
Give growth for every item shown.
Respond numerically; units are % and should not be typed.

Noted for CCCNC(=O)c1cn2ncnc(Nc3cc(C(=O)NC4CC4)ccc3C)c2c1C : its growth reads 49.1

Noted for CO/C=C/C(=O)c1cc2cnc3c(=N)cc(NC(=O)C(C)C)c([nH]1)c23 : its growth reads -53.8

Noted for CCn1cc(-c2ccnc3[nH]c(-c4cccc(CN(C)C)c4)cc23)c(-c2ccc(NC(=O)N(C)C)cc2)n1 : its growth reads 39.9

Noted for CCNCCNc1cc(-c2ccc(Cl)c(Cl)c2)c(C#N)c2nc3ccccc3n12 : its growth reads -74.2

Noted for COc1cc2ncnc(Nc3ccc(O)cc3)c2cc1OC : its growth reads 76.7

Noted for CN1[C@@H]2CC[C@H]1/C(=C\c1ccccc1)C1=C2[C@@H](c2ccccc2)C(C#N)=C(N)O1 : its growth reads 73.9

Noted for C=CC(=O)N1CCC[C@H](n2c(=O)n(-c3ccc(Oc4ccccc4)cc3)c3c(N)ncnc32)C1 : its growth reads 81.2

Noted for C=CCN(/C=C1/C(=O)O[C@H](COC)[C@@]2(C)C1=C(O)C(=O)C1=C2[C@H](OC(C)=O)C[C@]2(C)C(=O)CC[C@@H]12)CC=C : its growth reads -21

Noted for CNC(=O)c1cccc2cc(Oc3ccnc4cc(OCC5(N)CC5)c(OC)cc34)ccc12 : its growth reads 82.2

###

- System: SNB-19 CNS
- testDetails: NCI-60 one-dose screen, 48 h (100 = growth as untreated, 0 = no growth, -100 = all killed)
- particulars: 10 µM unless noted
This is part of a sample that, as a whole, favours compounds with a hit. Of some 83,000 tested, about 20% had one in any assay.
Could you label it Met if measured growth is 30% or higher, and Not met otherwise?

Determine whether measured growth meets or exceeds 30% for Cn1cnc2c(F)c(Nc3ccc(Br)cc3Cl)c(C(=O)NOCCO)cc21
Met

Determine whether measured growth meets or exceeds 30% for CC/C=C\C[C@H]1C/C=C2/C(=O)C=C[C@@H]2C/C=C\CCCC(=O)O1
Not met

Determine whether measured growth meets or exceeds 30% for Cc1ccc(-n2nc(C(C)(C)C)cc2NC(=O)NCc2cc(F)ccc2Oc2ccc3c(cnn3CCO)c2)cc1
Met

Determine whether measured growth meets or exceeds 30% for Nc1c2c(c(O)c3c1=C(CO)C=N3)=NCCS2=O (centres undefined)
Not met

Determine whether measured growth meets or exceeds 30% for CCN(CC)CCCC(C)Nc1cc(-c2ccc(C(F)(F)F)cc2)c(C#N)c2nc3ccccc3n12 (centres undefined)
Met

Determine whether measured growth meets or exceeds 30% for Cn1ccnc1C(=O)/C=C/c1ccc(CC(=O)Nc2ccc(S(F)(F)(F)(F)F)cc2)cc1
Not met

Determine whether measured growth meets or exceeds 30% for CCCc1cc2cc(-n3nc(C)c4c3CC(C)(C)CC4=O)cc(NC3CCC(O)CC3)c2c(=O)[nH]1 (centres undefined)
Met

Determine whether measured growth meets or exceeds 30% for Cc1cc([C@@H](C)Nc2ccccc2C(=O)O)c2nc(N3CCOCC3)cc(=O)n2c1
Met

Determine whether measured growth meets or exceeds 30% for C[C@@H](NC(=O)c1ncnc(N)c1Cl)c1ncc(C(=O)Nc2cc(C(F)(F)F)c(Cl)cn2)s1
Met
